Test system: MS2 coat protein
ASSAY_PROCEDURE: apparent KD of MS2 coat protein; designed switch direction (-1 OFF switch, 1 ON switch): 1; higher = weaker reporter binding
RECORDED_CONDITIONS: input ligand: none
Listed here: items and their measured apparent KD of MS2 coat protein.

# MACROMOLECULE_SEQUENCE, apparent KD of MS2 coat protein, nM
records = [
    ("UAAGGACAUGAGGAUCACCCAUGUGCUUCAUAUGGAGAAUCUCAGGAUAUGCUGAGGAUCACCCAGCAGAAGGGAGAUCCGAGG (Eterna round: R96, puzzle: Same State NG 3)", 120),
    ("AAGUGGAACUGAGGAUAUGGCAUCCGAACAUGAGGAUCACCCAUGUAGUUAGGAAAAGAACGGAGCCAGAAGGUAGGACUCCGC [Soqube] (Eterna round: R96, puzzle: Same State NG 2)", 15),
    ("AUCCCAUCGGGAGGAUAUGGAACCUUAUUGGUUCCAGAAGGUCCAACAUGAGGAUCACCCAUGUGGGAGUGGUCUAAUGACCAC [Fiskers NG1ss - 29] (Eterna round: R96, puzzle: Same State NG 1)", 470),
    ("GCUGGAACUCACAUGAGGAUCACCCAUGUUCCGGAAACGGCACAGGAUAUCUGUCCGAAAAGGUCAGAGAAGGGUGUAACCAGC [Fiskers NG3ss - 87] (Eterna round: R96, puzzle: Same State NG 3)", 88.8),
    ("GGCAAUAUCACAGGAUAUUGGAAAGGAAGUGUACAAGAAGGGUGAUAGUGCCUCAGCAACAUGAGGAUCACCCAUGUACUGAGC [PowerStrip SSNG 1.29] (Eterna round: R96, puzzle: Same State NG 1)", 113),
]

Hello, the source for this data is the supplement of paper PMC9170038, in case you need it.
